target under test: Telomerase reverse transcriptase (Homo sapiens)
experimental details: Inhibition of telomerase (unknown origin)
recorded endpoint: logIC50

// known answers, use as guide
{"compound": "C[N+]1(CCC(=O)Nc2ccc3c(c2)C(=O)c2cc(NC(=O)CC[N+]4(C)CCOCC4)ccc2-3)CCOCC1", "logIC50": 1.44}
{"compound": "C[n+]1cccc2cc(Nc3nc(N)nc(Nc4ccc5c(ccc[n+]5C)c4)n3)ccc21", "logIC50": -0.89}
{"compound": "CCN(CC)CCC(=O)Nc1ccc2c(c1)C(=O)c1cc(NC(=O)CCN(CC)CC)ccc1-2", "logIC50": 1.19}
{"compound": "CCCNCc1ccc2nc3ccc4cc5cc(CNCCC)ccc5nc4c3cc2c1", "logIC50": -0.52}

I = CN(C)CCc1ccc2nc3c4ccccc4n(CCN(C)C)c3cc2c1
II = CCCNCc1cc2nc3ccccc3cc2c2cc3ccccc3nc12
Decide: I or II , by lowest recorded logIC50. Lab note: record the label of whichever item you select.
II
